- Test system: Escherichia coli TOP10
- Assay Comment: shrunken log2 fold change of peptide-encoding DNA abundance (4.5 h post-induction vs induction); higher = less antimicrobial activity (less host growth inhibition)
- Test Settings: time post-induction: 4.5 h; library: site-saturation at positions 5, 18, 19, 20
Observable: shrunken log2 fold change
Simply state the number, no unit and no words.

Here is how some sequences turned out for shrunken log2 fold change.
RRIRLRPPRLPRPRPRPMWWPRP yielded shrunken log2 fold change of 1.19

Field shrunken log2 fold change (entry RRIRHRPPRLPRPRPRPEDNPRP ) reads -0.0032

For reference, reported shrunken log2 fold change for RRIRDRPPRLPRPRPRPGIIPRP stands at -0.171

Reported shrunken log2 fold change of RRIRHRPPRLPRPRPRPGQPPRP : 0.0384

New cases:
GET /value?item= RRIRTRPPRLPRPRPRPHHAPRP &field=shrunken log2 fold change returns -0.00367

Item: RRIRERPPRLPRPRPRPNLCPRP | shrunken log2 fold change: -0.13

Given item RRIRDRPPRLPRPRPRPYKEPRP , the value recorded as its shrunken log2 fold change is -0.372

So for RRIRFRPPRLPRPRPRPAEDPRP , the logged shrunken log2 fold change turned out to be 0.0423

Memo: RRIRRRPPRLPRPRPRPTSHPRP , reported shrunken log2 fold change: 0.321

###

- Test system: Escherichia coli TOP10
- Assay Comment: shrunken log2 fold change of peptide-encoding DNA abundance (4.5 h post-induction vs induction); higher = less antimicrobial activity (less host growth inhibition)
- Test Settings: time post-induction: 4.5 h; library: site-saturation at positions 5, 18, 19, 20
// map shrunken log2 fold change onto a label; ranges I = under -0.04, II = from -0.04 up to 0.1, III = 0.1 and over

Use these answered entries as a reference point.
Please indicate the class for RRIRKRPPRLPRPRPRPWKQPRP based on its shrunken log2 fold change. II

Please report the category associated with RRIRLRPPRLPRPRPRPSKMPRP , nothing else. I

Band of RRIRPRPPRLPRPRPRPSESPRP ? II

Others:
Quick check: band for RRIRVRPPRLPRPRPRPREPPRP III

###

- Test system: Escherichia coli TOP10;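 also: peptides expressed intracellularly from a pBAD plasmid library in pooled LB shake-flask culture, induced with 0.3% L-arabinose, DNA abundance read by NGS, three biological replicates, DESeq2 with apeglm shrinkage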
- Assay Comment: shrunken log2 fold change of peptide-encoding DNA abundance (4.5 h post-induction vs induction); higher = less antimicrobial activity (less host growth inhibition)
- Test Settings: time post-induction: 4.5 h; library: site-saturation at positions 5, 18, 19, 20
Observable: shrunken log2 fold change

Use these answered entries as a reference point.
response.value for RRIRLRPPRLPRPRPRPYDGPRP (field: shrunken log2 fold change) = 0.0118

shrunken log2 fold change measured on RRIRSRPPRLPRPRPRPSHQPRP = -0.284

Briefly, shrunken log2 fold change measured for RRIRTRPPRLPRPRPRPMFSPRP : -0.263

The sequence listed as RRIRWRPPRLPRPRPRPRQLPRP shows shrunken log2 fold change equal to -0.0051

Looking up RRIRGRPPRLPRPRPRPPANPRP , I found its shrunken log2 fold change recorded as 1.12

Short answer for RRIRNRPPRLPRPRPRPGAYPRP : shrunken log2 fold change was -0.00116

get_value(item= RRIRRRPPRLPRPRPRPRHAPRP , readout=shrunken log2 fold change) returns 0.746

Record RRIRARPPRLPRPRPRPHNIPRP . Reported shrunken log2 fold change: -0.124

More entries:
Per the records, this sequence ( RRIRTRPPRLPRPRPRPTPSPRP ) has shrunken log2 fold change equal to 0.563

The recorded shrunken log2 fold change for RRIRVRPPRLPRPRPRPCEAPRP is 0.0719
